- Tested on: SK-MEL-2 melanoma
- Test Summary: NCI tumour cell line growth inhibition, 48 h
Respond with y for TGI values of 20 µM and above, n for values below.

Query string: Exam item: decide whether the reported TGI for CC(=O)/C=C\C(=O)NNS(=O)(=O)c1ccc(C)cc1 is at least 20 µM.
Result string: y

Query string: Assess whether reported TGI for COCN1C(=O)[C@@H]2C[C@@H](OC/C=C/CBr)CN2C(=O)c2ccccc21 sits at 20 µM or higher.
Result string: y

Query string: State whether the measured TGI reaches 20 µM, counting equality as reaching it, for CC[N+]1(C)CCC(O)(/C=C/c2ccccc2)C(C(=O)/C=C/c2ccccc2)C1 (stereo unspecified)
Result string: y

Query string: Please indicate if the recorded TGI for C=C(Cl)C(Cl)(CBr)CCC(Cl)C(C)C (stereo unspecified) meets or exceeds 20 µM.
Result string: n

Query string: Check the entry Nc1cc(N)c2nc(-c3ccccc3)c(Sc3ccc(F)cc3)nc2c1 : does TGI equal or exceed 20 µM?
Result string: y

Query string: Does the reported TGI for O=S(O)CCCSSCCCCSSCCCS(=O)O fall at or above the 20 µM mark?
Result string: y

Query string: API: above_or_equal(metric=TGI, cutoff=20 µM) for item CCCCCCn1c(=N)n(CC(O)COc2cccc(C)c2)c2ccccc21 (stereo unspecified)
Result string: n

Query string: Is TGI at least 20 µM? Consider CC(C)(C)OC(=O)NCCNC(=O)OCc1ccccc1
Result string: y

Query string: Kindly determine if TGI recorded for CN(C)/C=C/c1ccnc2c1C(=O)c1ccccc1C2=O is above or exactly 20 µM.
Result string: n

Query string: I'd appreciate it if you could say whether C=CC(C)(C)c1cc([C@@H]2COc3cc(O)ccc3C2=O)c(O)c(OC)c1OC has TGI at least equal to 20 µM.
Result string: y

Query string: Answer whether TGI of N#Cc1c(-c2ccc(Cl)cc2)n([O-])c2ccccc2[n+]1=O is greater than or equal to 20 µM.
Result string: y

* * *

Consider the following molecules; for each one, report its TGI.
- System: PC-3 prostate
- Test Summary: NCI tumour cell line growth inhibition, 48 h
# number only, unit µM dropped from output

Query string: Data request, read-out TGI, for Oc1ccc(-c2nc(-c3ccc4oc5ccc(-c6[nH]c(-c7ccc(O)cc7)nc6-c6ccccc6)cc5c4c3)c(-c3ccccc3)[nH]2)cc1
Result string: 13.5

Query string: For COc1ccc(N=Nc2ccc3oc(=O)c(C(=O)Nc4ccc(OC)cc4)cc3c2)cc1 , what is its reported TGI?
Result string: 43.1

Query string: Can you look up the measured TGI of COC(=O)C(I(OS(=O)(=O)c1ccc(C)cc1)c1ccccc1)=P(c1ccccc1)(c1ccccc1)c1ccccc1 for me?
Result string: 62

Query string: Please look up its TGI: CCCCCCc1cc2cc(C(=O)Nc3cccc(C(F)(F)F)c3)c(=N)oc2cc1O
Result string: 15.1

Query string: Tell me the measured TGI of O=C(O)CCCCCNC(=O)CCC(CN(CC(=O)OCc1ccccc1)CC(=O)OCc1ccccc1)N(CC(=O)OCc1ccccc1)CC(=O)OCc1ccccc1 (centres undefined) , please.
Result string: 32.4

* * *

Consider the following compounds; for each one, report its log10(TGI).
- Test system: COLO 205 colon
- Test Summary: NCI tumour cell line growth inhibition, 48 h
Please keep in mind that the values are log10 of TGI expressed in µM.

Query string: Could you tell me which log10(TGI) is on file for CN(C)CCCNc1ccc2nnn3c4ccc([N+](=O)[O-])cc4c(=O)c1c23 ?
Result string: 0.73

Query string: Entry under review: CCCCCCc1cc2cc(C(=O)Nc3cccc(C(F)(F)F)c3)c(=N)oc2cc1O . Reported log10(TGI)?
Result string: 1.32

Query string: Can you share its log10(TGI)? I mean this compound: COc1ccc(N=Nc2ccc3oc(=O)c(C(=O)Nc4ccc(OC)cc4)cc3c2)cc1
Result string: 1.64

Query string: Request the reported log10(TGI) associated with COc1cccc2c(NNc3ccc(Cl)cc3)c3ccc([N+](=O)[O-])cc3nc12
Result string: 1.93

Query string: Which log10(TGI) is listed for Cc1ccc(S(=O)(=O)NC2(C=O)CCC(C(C)(C)C)CC2)cc1 (stereo not drawn) ?
Result string: 1.87

Query string: Look at this compound and give its reported log10(TGI). Cn1c([N+](=O)[O-])cnc1/C=C1\Oc2ccc(Cl)cc2C1=O
Result string: 0.50

* * *

Field: TGI. Provide a value for each of the molecules that follow.
- Test system: M19-MEL melanoma
- Test Summary: NCI tumour cell line growth inhibition, 48 h

Query string: Name the recorded TGI for Cc1cn2cc(-c3ccncc3)nc2s1 .
Result string: > 100 µM

Query string: Consider the molecule shown here: Nc1nc(NC(=O)C2=NS(=O)(=O)c3cc(S(N)(=O)=O)c(Cl)cc3N2)n[nH]1 What is its recorded TGI?
Result string: > 100 µM

Query string: Using the record for O=C(N/N=C/c1cc(-c2ccccc2Cl)c(-c2ccccc2Cl)o1)c1ccncc1 , report its TGI.
Result string: > 100 µM

Query string: Requested read-out: TGI. Entry: O=c1[nH]c2cccccc-2c1-c1nc2ccccc2[nH]1
Result string: > 100 µM

Query string: Which TGI is reported for this molecule? Cc1nc2c(=O)n(C)c(=O)nc-2n(-c2ccc(Cl)cc2)c1C
Result string: > 100 µM

Query string: Query (molecule): S=C(N/N=C/c1ccccc1)NC1CC(c2ccccc2)Oc2ccccc21 (configuration not stated) ; field requested: TGI
Result string: > 100 µM

Query string: Bench note: what TGI did Cc1ccc(S(=O)(=O)NC2(C=O)CCC(C(C)(C)C)CC2)cc1 (configuration not stated) show?
Result string: 73.8 µM

Query string: Which value of TGI has been reported for C[CH2][Ge]1([CH2]C)[CH2]CC2(CCN(CCCN(C)C)C2)C[CH2]1 in the records?
Result string: 2.63 µM

Query string: Value lookup for TGI; key = CC(=O)NC(Cc1ccccc1)C(=S)N1CCCC1 (configuration not stated)
Result string: > 100 µM

Query string: May I ask what TGI has been recorded for COC(=O)C1CCC2(CC1)NC(=O)NC2=O (configuration not stated) ?
Result string: > 100 µM

Query string: Name the recorded TGI for O=C(Cc1nc2ccccc2s1)C(=O)Nc1ccccc1C(F)(F)F .
Result string: > 100 µM

Query string: Bench note: what TGI did Cc1ccc(S(=O)(=O)c2ccccn2)cc1 show?
Result string: > 100 µM

* * *

- Test system: SF-539 CNS
- Test Summary: NCI tumour cell line growth inhibition, 48 h; in the data active means GI50 below about 0.43 µM; inactive means the rest
Field 'call' accepts TRUE = active, FALSE = inactive

Query string: Hi, do you know how COc1ccc(/C(C)=C(\c2ccc(Cl)cc2)c2ccc(OCCN3CCCCC3)cc2)cc1F came out in this test?
Result string: FALSE

Query string: Query: recorded result category for C=C1C(=O)O[C@H]2[C@H]1CC/C(Cn1cc(CNC(=O)c3cc4ccccc4[nH]3)nn1)=C\CC[C@@]1(C)O[C@@H]21 in this test
Result string: FALSE

Query string: Hello, I am checking results. What call was entered for NCCN.O=N[O-].O=N[O-].O=N[O-].O=N[O-].[Co+3].[K+] ?
Result string: FALSE

Query string: So what was the verdict on CCS(=O)(=O)Nc1ccc(Oc2ccc(F)cc2F)c(-c2cn(C)c(=O)c3[nH]ccc23)c1 in this test?
Result string: TRUE

Query string: For CC(=O)CC(=O)Nn1c(-c2cccs2)nc2ccc(I)cc2c1=O , what call appears in the results of this test?
Result string: FALSE

* * *

Kindly state TGI for each of the entries shown.
- System: SNB-19 CNS
- Test Summary: NCI tumour cell line growth inhibition, 48 h

Query string: Give its TGI value. Item: COc1ccc(/C=N/NC(=O)c2ccccc2Nc2ccccc2C(=O)N/N=C/c2ccc(OC)c(OC)c2)cc1OC
Result string: > 100 µM

Query string: Bench note: what TGI did O=C(Cl)c1cc([N+](=O)[O-])cc([N+](=O)[O-])c1 show?
Result string: > 100 µM

Query string: Quick one: TGI for COc1ccc(N2CCN(CC(=O)N3CCN(c4nnc(-c5ccc(Cl)cc5)c(-c5ccc(Cl)cc5)n4)CC3)CC2)cc1 ?
Result string: > 100 µM

Query string: Bench note: what TGI did CC(=O)CC(=O)Nn1c(-c2cccs2)nc2ccc(I)cc2c1=O show?
Result string: > 100 µM

Query string: For the compound COC(=O)c1cc2c([nH]c3ccccc32)c(-c2nc3cc(N(S(=O)(=O)c4ccc(C)cc4)S(=O)(=O)c4ccc(C)cc4)c(OC)cc3cc2CO)n1 , what TGI is on record?
Result string: > 100 µM

Query string: // TGI lookup, key: COc1cc2c(cc1C)NC(=O)/C2=C/c1c(Cl)n(C)c2ccccc12
Result string: 38.6 µM

Query string: Reported TGI for COc1ccccc1C1C(Cl)C(=O)N1NC(=O)Cc1ccccc1 (stereo not given) : what is it?
Result string: > 100 µM

Query string: Which TGI reading was recorded for the compound CC(C)(C)OC(=O)NCCNC(=O)OCc1ccccc1 ?
Result string: > 100 µM

Query string: Need TGI of C=C1C(=O)O[C@H]2[C@H]1CC/C(Cn1cc(CNC(=O)c3cc4ccccc4[nH]3)nn1)=C\CC[C@@]1(C)O[C@@H]21 , thanks.
Result string: 20.4 µM

Query string: What value of TGI has been reported for the following compound? CCN(CC)CCCC(C)NC(=S)N/N=C(\C)c1ccccn1 (stereo not given)
Result string: > 100 µM

Query string: What TGI value was documented for this compound, Cn1cc(C2=C(c3cn(CCCSC(=N)N)c4ccccc34)C(=O)NC2=O)c2ccccc21 ?
Result string: 8.99 µM

Query string: Need TGI of O=S(O)CCCSSCCCCSSCCCS(=O)O , thanks.
Result string: > 100 µM

Query string: What measured TGI goes with Cc1ccc(CCNC(=S)SCC(NC(=O)CCC(N)C(=O)O)C(=O)NCC(=O)O)cc1 (stereo not given) ?
Result string: 4.98 µM

Query string: // lookup TGI for O=C(CN1C(=O)c2ccccc2C1=O)NC1(C(=O)O)CCCC1
Result string: > 100 µM

Query string: May I ask what TGI has been recorded for O=C1[C@@H]2C3C=CC([C@H]4C(=O)N(CO)C(=O)[C@@H]34)[C@@H]2C(=O)N1CO ?
Result string: > 100 µM

Query string: Name the reported TGI value associated with the compound CC(C)(Oc1ccc(C2C[C@H]2Cl)cc1)C(=O)O (stereo not given in full)
Result string: > 100 µM

Query string: I have this compound here, COc1cc2c(oc(=O)c3c4oc([Si](C)(C)C)cc4cc(OC)c23)c2cccc(O)c12 , and I need its recorded TGI.
Result string: > 100 µM

Query string: Data request, read-out TGI, for COC(=O)[C@@H](C)C[C@H](Cc1ccccc1)NC(=O)c1cccc([C@@H](C[C@H](C(C)C)N(C)C(=O)[C@@H](NC(=O)[C@H]2CCCCN2C)C(C)C)OC(C)=O)n1
Result string: > 16.7 µM

Query string: Sample COc1ccc(/C=C2\CN(Cc3cn(CCCNc4ccnc5cc(Cl)ccc45)nn3)C/C(=C\c3ccc(OC)cc3)C2=O)cc1 — what was its TGI?
Result string: 36.1 µM

Query string: Fill in: TGI of COc1cc2c(cc1Nc1nc(Nc3ccsc3C(N)=O)c3cc[nH]c3n1)N(C(=O)CN(C)C)CCC2 is ___
Result string: > 25 µM
